Hey, just so you know, these numbers are from the supplement of paper PMC10567573.

Listed here: items and their measured protein stability index.
B1: ZBED1 (parent)
chain: EQVFSLGDGVSGGFFGIRDSSFL

# Variants of: B1
# PROCEDURE TEXT: protein stability index of a GFP-peptide fusion (GPS, HEK-293T) (PSI 1-6); higher = more stable;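 further: lentivirally expressed fusions sorted by FACS into six bins by GFP to DsRed ratio, PSI derived from sequencing read proportions per bin multiplied by bin number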
# EXPERIMENTAL CONTEXT: c terminus: native
OBSERVABLE: protein stability index

• EQVFSLGDGQSGGFFGIRDSSFL [V10Q] = 3.92
• EQVFSLGDGVQGGFFGIRDSSFL [S11Q] = 3.05
• EQVFSLGDGVSGGFFGIRDESFL [S20E] = 3.91
• EQVFSLGDGVSGGFFGIRDSSDL [F22D] = 4.06
• EQVNSLGDGVSGGFFGIRDSSFL [F4N] = 4.11
• EQVFSLGDGVSGGFFGPRDSSFL [I17P] = 4
• EQVFSLGDGVSGGFFGIADSSFL [R18A] = 2.92
• EQVFSLGDGVSGGFTGIRDSSFL [F15T] = 4.08
• EQVFSLGDGVSGGFFGIRDSAFL [S21A] = 3
• EQVFSLIDGVSGGFFGIRDSSFL [G7I] = 1.9
• EQVFSLGDGVSNGFFGIRDSSFL [G12N] = 3.6
• EQDFSLGDGVSGGFFGIRDSSFL [V3D] = 4.19
• EQVFSLGDGVSGGFFKIRDSSFL [G16K] = 3.29
• EQVFSLGDGVSGGFFGIRDSSYL [F22Y] = 3.33
• EQVFSLPDGVSGGFFGIRDSSFL [G7P] = 3.51
• EGVFSLGDGVSGGFFGIRDSSFL [Q2G] = 3.05
• EQVHSLGDGVSGGFFGIRDSSFL [F4H] = 4.16
• EQVFSLVDGVSGGFFGIRDSSFL [G7V] = 2.19
• EQVFSLGDGVSGGFFGIRDKSFL [S20K] = 3.53
• EQVFSLGDGVSGGFFGIRESSFL [D19E] = 2.92
• GQVFSLGDGVSGGFFGIRDSSFL [E1G] = 2.45
• EQVFSLGDGVSGGFFGIRDSSFH [L23H] = 3.9
• EQVFSLGDGVSGGFFQIRDSSFL [G16Q] = 2.93
• EQVFSLGDGVSGGFFGIRDSSFP [L23P] = 3.92
• EQVFSLGDGVSGSFFGIRDSSFL [G13S] = 3.49
